Tested on: LOX IMVI
Test: NCI tumour cell line growth inhibition, 48 h
The source made the active and inactive calls. Rule as the data show it: active = GI50 up to about 1.1 µM and inactive = higher.
Use one of these outcomes when replying: y for active, n for inactive

>>> qualitative_label("CC1=NC=C(O)c2ccccc2O1")
"n"
>>> qualitative_label("CC1=C(O)C(=O)C2=C(C1=O)[C@@H]([C@@H](C)C/C=C/C(C)(C)O)CC[C@@H]2C")
"n"
>>> qualitative_label("O=C(O)C1(C(=O)O)CCN(S(=O)(=O)c2ccccc2)CC1")
"n"

// outcome(item) with item = "CN(C)c1ccc(C(=NN)c2ccc(N(C)C)cc2)cc1"
y

Which outcome was entered for the molecule "O=C1/C(=C/c2ccccc2)CN(C(=O)CCN2CCOCC2)C/C1=C\c1ccccc1" in this test?
y

What call does the record list for "COCn1cnc2c(=O)n(-c3ccc(C)cc3)c(=S)n(-c3ccc(C)cc3)c21" ?
n
